melting point values by entry

Data request: Entry `CON=C(C#N)c1ccc(Cl)c(CNC(=O)OC)c1` needs its melting point filled in; supply it.
Data returned: 104 to 107 °C

Data request: Entry `COC(=O)NCc1cc(C(C)=NO)ccc1Cl` needs its melting point filled in; supply it.
Data returned: 124 to 127 °C

Data request: Entry `COC(=O)NCc1cc(C(C)=NOCc2ccc(F)cc2)ccc1Cl` needs its melting point filled in; supply it.
Data returned: 101 to 103 °C

Data request: Entry `COC(=O)NCc1cc(C(C)=NOCc2cccc(C)n2)ccc1C` needs its melting point filled in; supply it.
Data returned: 72 to 75 °C
